Numbers sourced from patent US5516936A.

Biological target: rat liver kynureninase (Rattus norvegicus)
Sequence (P70712 1-464): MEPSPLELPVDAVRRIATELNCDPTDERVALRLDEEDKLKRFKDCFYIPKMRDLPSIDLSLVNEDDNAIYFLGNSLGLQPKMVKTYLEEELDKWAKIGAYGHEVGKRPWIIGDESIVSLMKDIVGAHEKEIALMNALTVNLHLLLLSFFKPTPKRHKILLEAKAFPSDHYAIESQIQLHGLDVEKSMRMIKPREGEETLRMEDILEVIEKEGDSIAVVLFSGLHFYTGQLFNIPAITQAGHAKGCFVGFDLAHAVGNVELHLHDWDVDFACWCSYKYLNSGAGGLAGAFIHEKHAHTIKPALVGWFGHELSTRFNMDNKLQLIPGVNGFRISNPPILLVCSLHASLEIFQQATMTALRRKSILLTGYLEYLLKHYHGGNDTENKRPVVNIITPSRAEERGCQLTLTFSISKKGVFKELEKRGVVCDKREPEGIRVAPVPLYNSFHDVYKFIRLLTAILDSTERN
PROPERTY: Ki

Fill blank: measured Ki of the compound Nc1ccccc1[C@@H](O)C[C@H](N)C(=O)O [(αS,γS)-dihydrokynurenine] is ____.
~690 µM
